Target Of Assay: human STING (Homo sapiens, UniProt Q86WV6)
Sequence (Q86WV6 whole entry H232R): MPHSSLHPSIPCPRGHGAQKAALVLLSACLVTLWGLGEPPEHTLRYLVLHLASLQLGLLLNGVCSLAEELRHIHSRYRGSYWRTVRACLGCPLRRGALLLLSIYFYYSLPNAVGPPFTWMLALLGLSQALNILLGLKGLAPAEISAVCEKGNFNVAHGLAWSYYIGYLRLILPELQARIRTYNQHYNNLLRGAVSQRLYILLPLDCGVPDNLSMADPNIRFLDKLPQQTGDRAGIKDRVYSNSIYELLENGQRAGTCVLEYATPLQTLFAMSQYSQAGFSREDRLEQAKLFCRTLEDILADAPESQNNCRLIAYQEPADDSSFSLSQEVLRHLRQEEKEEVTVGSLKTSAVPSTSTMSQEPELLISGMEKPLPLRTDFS
Assay Comment: Fluorescence Thermal Shift assay (hSTING FTS binding assay)
Assay Conditions: STING 0.1 mg/ml, 20 min preincubation, SyproOrange
Test Readout: hSTING FTS binding assay (ΔT C.°)

{"Compound": "Cc1ccc(N2CCC[C@H](N(Cc3ccnc(C)c3)Cc3c[nH]c4ccccc4c3=O)C2)cn1", "Observed Result": "++ (ΔTm>10° C.)"}
{"Compound": "COc1cc(CN(Cc2cn(C3CC3)c3cc(F)c(F)cc3c2=O)[C@H]2CCCN(c3ccc(C)nc3)C2)ccn1", "Observed Result": "++ (ΔTm>10° C.)"}
{"Compound": "Cn1cc(CN(Cc2ccncc2)[C@H]2CCCN(c3cccnc3)C2)c(=O)c2ccccc21", "Observed Result": "++ (ΔTm>10° C.)"}
{"Compound": "Cc1cc(CN(Cc2cn(C)c3cc(Br)ccc3c2=O)[C@H]2CCCN(c3cccnc3)C2)ccn1", "Observed Result": "++ (ΔTm>10° C.)"}
{"Compound": "Cc1ccc(N2CCC[C@H](N(Cc3ccnc(C)c3)Cc3cn(C4CC4)c4[nH]c(=O)c(F)cc4c3=O)C2)cn1", "Observed Result": "++ (ΔTm>10° C.)"}
{"Compound": "Cc1ccc(N2CCC[C@H](N(Cc3ccnc(C)c3)Cc3cn(C4CC4)c4cc(Cl)ncc4c3=O)C2)cn1", "Observed Result": "+ (ΔTm<10° C.)"}

Query: Notebook entry, human STING (Homo sapiens, UniProt Q86WV6) assay: hSTING FTS binding assay (ΔT C.°) of Cc1cc(CN(Cc2cn(C)c3ccccc3c2=O)C2CN(c3cccnc3)CC(F)(F)C2)ccn1 (stereo not shown) = ?
Reply: + (ΔTm<10° C.)
